- Tgt: T1, AFP158/HLA-A*02:01 complex (human)
- T1 construct: biotinylated on the BSP by BirA for ELISA and panning; also called biotinylated AFP158/HLA-A*02:01 complex; Bio-AFP158
- Experimental Details: SPR; vs AS170036 VL1VH1;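 further: crude scFv captured on sensor chip, peptide–HLA complex flowed over at several concentrations, KD estimated from association and dissociation kinetic rates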
Listed below: Affinity increase values for each entry.
Expressed in fold, but write only the number.

Could you tell me which Affinity increase is on file for AS170036 VL1VH1 HS53A (scFv) scFv: QSALTQPRSVSGSPGQSVTISCAGTSSDVGSENYVSWYQQHPGKAPKLMIYQVNKRASGVPDRFSGSKSGNTASLTISGLQAEDEADYYCASYRSSDHNIVFGGGTKLTVLGGGGSGGGGSGGGGSEVQLVESGGGLVQPGGSLRLSCAASGFTFSSYAMSWVRQAPGKGLEWVSTINAGTGSPYYADSVKGRFTISRDNSKNTLYLQMNSLRAEDTAVYYCAKNFFDGSWFLGPPAMDYWGQGTLVTVSSHHHHHH ?
0.2

Shift focus to the following entry.
Could you tell me which Affinity increase is on file for AS170036 VL1VH1 HL107Q (scFv) scFv: QSALTQPRSVSGSPGQSVTISCAGTSSDVGSENYVSWYQQHPGKAPKLMIYQVNKRASGVPDRFSGSKSGNTASLTISGLQAEDEADYYCASYRSSDHNIVFGGGTKLTVLGGGGSGGGGSGGGGSEVQLVESGGGLVQPGGSLRLSCAASGFTFSSYAMSWVRQAPGKGLEWVSTINSGTGSPYYADSVKGRFTISRDNSKNTLYLQMNSLRAEDTAVYYCAKNFFDGSWFQGPPAMDYWGQGTLVTVSSHHHHHH ?
0.2
